experiment: purified protein yield per well (BCA); higher = higher soluble expression

[
  {
    "monomer.sequence": "STPVHHAAASYTSTAAHHHAPFAVRTTVVPKTAVTTFGGGVIYTPQDTGKPVLGAVVITPGFTDTNANEKEMAELVASQGFVAFAIDTLTTDDLPDLRATQMLAAADYLTGQSAVRSQVSKDDVGLIGYSFGGGGAMQAAQSRPSIKAAIGLMPFDFPPATDPDAMYPAYPHMTTPTLVITGQKDDVADPKDFGKPAYDSIPAGTPKQYLELTGLGHAAGQHVPVATIRTAVTAFLKRYLDGNSAYAKYICPAPKVGGPISASLSSCPKG [TEP069]",
    "comparative.sign": "=",
    "purified protein yield per well [µg]": 25.8
  },
  {
    "monomer.sequence": "GQAPTTAAQVRASAFAKGPDPTEQTIKAQRGPFQIKQLSVAAQSGRGFNRGTIYYPTDTGQGTYGAIAVIPGFLEPEFITSWYGPTLASYGFVVMTLEPFAITDFPDPRSNQLLAAVDWLAADSPVKAQVDPNRLAVMGHSMGGGGALLAASKRPSLKAAVPLAPWNLYADFAGVTVPTLVIGADNDFIAPVGMHADPMYASIKASPNEGYLKLKNADHFTVNSYSATLTKFTVSWMKRYVDEDTRYTQFLCPAPQPDPSFASFQMTCPS [TEP173]",
    "comparative.sign": "=",
    "purified protein yield per well [µg]": 293
  },
  {
    "monomer.sequence": "MRPGRVCPDSCGCRPSSRRKDATIVQQLRNETIGSPSPHRAPRRFRPRLVRAGLAALLAAGGLFTAQSGSAGAAQNPYERGPAPTVSSIEAPRGPYAVSETRVSSLGVTGFGGGTLYYPTTTRDGTFGAVAISPGYGGTQSSISWLGPRLASQGFVVFTIDTLSTLDQPAGRGGQLLAALDYLTQRSSVRDRVDSGRLGVMGHSMGGGGSLEAAKSRPALQAAIPLTGWNLDKTWQELRTPTLVVGADGDTIAPVSSHSEPFYESLAGSLDKAYLELNGASHFTPNSSNTTIAKYSVSWLKRFIDNDLRYEQFLCPLPRPGATIEEYRGNCPHTS [TEP099]",
    "comparative.sign": "=",
    "purified protein yield per well [µg]": 68.5
  },
  {
    "monomer.sequence": "MGVRYPEQGGFGGVAAVPGYNSAEKAVAWLGPRLASQGFVVITIATKGRSDQPTARGKQLLAALDYLTAKSPAAVRQRLDPQRLAVTGHSMGGGGSLYAAWTRPGLKAAVPLAPWHSIKNWSGITVPTLVQGGTSDDVAPVGTHAEPIYRSLTGARERAYAESAGADHGTFVREDPLIGALTVAWLKRFVDDDARYEQFLCPAPADPGLTEYRHSCPSS [TEP121]",
    "comparative.sign": "<",
    "purified protein yield per well [µg]": 25
  },
  {
    "monomer.sequence": "VQNGPNPTLDAIKADGPYAITSQAVAGNGFGAGTIYMPTAAGKYALVAICPGFVSAQSTMAGMAKRLATHGFVVVAISTNTLFDFPSSRATQLLAALKTVSALNTGAVVGKIDTTRQAVSGWSMGGGGTLEAAGATPGLVAAVAFAPWDTSTTKMKVNKVPAAIIGGSSDVIAPVASHSQKFYDAIPATTPKLLAVINGADHFFPTKASEPASYTNISWMKRFADGDTRYSSFLNGNDAALSSFSSNGPF [ESM056]",
    "comparative.sign": "<",
    "purified protein yield per well [µg]": 25
  }
]

The origin of these recorded values is the supplement of paper PMC12455559.
